Test system: HDLM-2;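 also: cell viability assay measuring suppression of HDLM-2 proliferation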
assayProtocol: cells
Assay type: functional, cell-based
cond: Homo sapiens
Description: SANGER: Inhibition of human HDLM-2 cell growth in a cell viability assay.
Listing of entries alongside the reported IC50.

{"itemSmiles": "Cc1cc([C@@H](C)Nc2ccccc2C(=O)O)c2nc(N3CCOCC3)cc(=O)n2c1", "IC50": "> 5.12 µM"}
{"itemSmiles": "Cc1ccc(Nc2nccc(N(C)c3ccc4c(C)n(C)nc4c3)n2)cc1S(N)(=O)=O", "IC50": "> 8 µM"}
{"itemSmiles": "CNC(=O)c1cc(Oc2ccc(NC(=O)Nc3ccc(Cl)c(C(F)(F)F)c3)cc2)ccn1", "IC50": "> 4 µM"}
{"itemSmiles": "COc1ccc(C2=N[C@@H](c3ccc(Cl)cc3)[C@@H](c3ccc(Cl)cc3)N2C(=O)N2CCNC(=O)C2)c(OC(C)C)c1", "IC50": "> 8 µM"}

---

Tested on: NCI-H720;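 also: growth inhibition of human NCI-H720 cells determined by a cell viability assay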
assayProtocol: cells
Format: functional, cell-based
cond: Homo sapiens
Description: SANGER: Inhibition of human NCI-H720 cell growth in a cell viability assay.
Listed compounds paired with reported IC50
property: IC50

{"itemSmiles": "CC1=C2C[C@H]3[C@@H](CC=C4C[C@@H](O)CC[C@@]43C)[C@@H]2CC[C@]12O[C@@H]1C[C@H](C)CN[C@H]1[C@H]2C", "experimentalResult": "> 16000 nM"}
{"itemSmiles": "Cc1cnc(-c2cnc(NCCNc3ccc(C#N)cn3)nc2-c2ccc(Cl)cc2Cl)[nH]1", "experimentalResult": "> 2560 nM"}
{"itemSmiles": "C=CCNC1=C2C[C@@H](C)C[C@H](OC)[C@H](O)[C@@H](C)/C=C(\\C)[C@H](OC(N)=O)[C@@H](OC)/C=C\\C=C(/C)C(=O)NC(=CC1=O)C2=O", "experimentalResult": "25.5 nM"}

---

Entries and their pIC50
System: HMV-2 cell line;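 also: growth inhibition of HMV-II cells, read out with a cell viability assay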
assayProtocol: cells
Type: functional, cell-based, Homo sapiens
cond: Homo sapiens, HMV-2
Description: SANGER: Inhibition of human HMV-II cell growth in a cell viability assay.
pIC50: −log10 of the molar value.
property: pIC50

{"compound": "CC(=O)O[C@@]12CO[C@@H]1C[C@H](O)[C@@]1(C)C(=O)[C@H](O)C3=C(C)[C@@H](OC(=O)[C@H](O)[C@@H](NC(=O)OC(C)(C)C)c4ccccc4)C[C@@](O)([C@@H](OC(=O)c4ccccc4)[C@H]21)C3(C)C", "qualifierSign": "<", "experimentalResult": 8.00}
{"compound": "C[C@]1(O)C[C@@H](c2nc(-c3ccc4ccc(-c5ccccc5)nc4c3)c3c(N)nccn32)C1", "qualifierSign": "=", "experimentalResult": 7.05}
{"compound": "C[C@@]1(C(=O)Nc2ccc(F)nc2)CCCN1c1nc(Nc2cc(C3CC3)n[nH]2)c2cccn2n1", "qualifierSign": "=", "experimentalResult": 6.74}
{"compound": "C=CCNC1=C2C[C@@H](C)C[C@H](OC)[C@H](O)[C@@H](C)/C=C(\\C)[C@H](OC(N)=O)[C@@H](OC)/C=C\\C=C(/C)C(=O)NC(=CC1=O)C2=O", "qualifierSign": "=", "experimentalResult": 6.92}
{"compound": "CN(C)C/C=C/C(=O)Nc1cc2c(Nc3ccc(F)c(Cl)c3)ncnc2cc1O[C@H]1CCOC1", "qualifierSign": "<", "experimentalResult": 6.30}
{"compound": "Cc1ccc(Nc2nccc(N(C)c3ccc4c(C)n(C)nc4c3)n2)cc1S(N)(=O)=O", "qualifierSign": "<", "experimentalResult": 5.10}
{"compound": "COC(=O)CNC(=O)C(=O)OC", "qualifierSign": "<", "experimentalResult": 2.40}
{"compound": "COc1cc([C@@H]2c3cc4c(cc3[C@@H](O[C@@H]3O[C@@H]5CO[C@@H](C)O[C@H]5[C@H](O)[C@H]3O)[C@H]3COC(=O)[C@H]23)OCO4)cc(OC)c1O [ETOPOSIDE]", "qualifierSign": "=", "experimentalResult": 6.25}
{"compound": "CCOc1nc(NC(=O)Cc2cc(OC)ccc2OC)cc(N)c1C#N", "qualifierSign": "<", "experimentalResult": 5.00}
{"compound": "O=C1N=C(NCc2cccs2)S/C1=C\\c1ccc2ncccc2c1", "qualifierSign": "<", "experimentalResult": 5.30}

---

Parameter IC50: see the listing below.
System: CAL-33
assayProtocol: cells
Assay type: functional, cell-based, Homo sapiens
cond: Homo sapiens, CAL-33
Description: SANGER: Inhibition of human CAL-33 cell growth in a cell viability assay.
property: IC50 (µM)

{"itemSmiles": "Cn1cc(C2=C(c3ccc(Cl)cc3Cl)C(=O)NC2=O)c2ccccc21", "property": "IC50", "resultUnits": "µM", "qualifierSign": ">", "experimentalResult": 10}
{"itemSmiles": "C=CCc1cccc(/C=N/NC(=O)CN2CCN(Cc3ccccc3)CC2)c1O", "property": "IC50", "resultUnits": "µM", "qualifierSign": ">", "experimentalResult": 2.56}
{"itemSmiles": "COc1ccc(-c2ccc3c(N4CCOC[C@@H]4C)nc(N4CCOC[C@@H]4C)nc3n2)cc1CO", "property": "IC50", "resultUnits": "µM", "qualifierSign": "=", "experimentalResult": 0.865}
{"itemSmiles": "Cc1cc([C@@H](C)Nc2ccccc2C(=O)O)c2nc(N3CCOCC3)cc(=O)n2c1", "property": "IC50", "resultUnits": "µM", "qualifierSign": "=", "experimentalResult": 1.49}
{"itemSmiles": "O=C(c1cc(Cc2n[nH]c(=O)c3ccccc23)ccc1F)N1CCN(C(=O)C2CC2)CC1", "property": "IC50", "resultUnits": "µM", "qualifierSign": ">", "experimentalResult": 5}
{"itemSmiles": "Cn1cncc1[C@@](N)(c1ccc(Cl)cc1)c1ccc2c(c1)c(-c1cccc(Cl)c1)cc(=O)n2C", "property": "IC50", "resultUnits": "µM", "qualifierSign": "=", "experimentalResult": 3.68}
{"itemSmiles": "CCOc1nc(NC(=O)Cc2cc(OC)ccc2OC)cc(N)c1C#N", "property": "IC50", "resultUnits": "µM", "qualifierSign": ">", "experimentalResult": 10}

---

System: HCC1419;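 also: growth inhibition of human HCC1419 cells, read out as cell viability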
assayProtocol: cells
Assay type: functional, cell-based, Homo sapiens
cond: Homo sapiens, HCC1419
Description: SANGER: Inhibition of human HCC1419 cell growth in a cell viability assay.
pIC50: −log10 of the molar value.

{"compound": "Nc1ccn([C@@H]2O[C@H](CO)[C@@H](O)[C@@H]2O)c(=O)n1", "pIC50": "< 5.70"}
{"compound": "COc1cc([C@@H]2c3cc4c(cc3[C@@H](O[C@@H]3O[C@@H]5CO[C@@H](C)O[C@H]5[C@H](O)[C@H]3O)[C@H]3COC(=O)[C@H]23)OCO4)cc(OC)c1O [ETOPOSIDE]", "pIC50": "< 4.80"}
{"compound": "Cc1ccc(Nc2nccc(N(C)c3ccc4c(C)n(C)nc4c3)n2)cc1S(N)(=O)=O", "pIC50": "< 5.10"}
{"compound": "COc1cc(F)c(F)c(Nc2ccc(I)cc2F)c1NS(=O)(=O)C1(CC(O)CO)CC1 (centres undefined)", "pIC50": "< 5.30"}

---

Measured pIC50 of individual entries
System: MHH-CALL-2;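 also: growth inhibition of the cell line, read out in a cell viability assay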
assayProtocol: cells
Format: functional, cell-based
cond: Homo sapiens
Description: SANGER: Inhibition of human MHH-CALL-2 cell growth in a cell viability assay.
pIC50: −log10 of the molar value.

{"molecule": "CO[C@H]1C[C@@H]2CC[C@@H](C)[C@@](O)(O2)C(=O)C(=O)N2CCCC[C@H]2C(=O)O[C@H]([C@H](C)C[C@@H]2CC[C@@H](O)[C@H](OC)C2)CC(=O)[C@H](C)/C=C(\\C)[C@@H](O)[C@@H](OC)C(=O)[C@H](C)C[C@H](C)/C=C/C=C/C=C/1C [SIROLIMUS]", "pIC50": "< 7.00"}
{"molecule": "CS(=O)(=O)CCNCc1ccc(-c2ccc3ncnc(Nc4ccc(OCc5cccc(F)c5)c(Cl)c4)c3c2)o1 [LAPATINIB]", "pIC50": "< 5.70"}
{"molecule": "C[C@]1(O)C[C@@H](c2nc(-c3ccc4ccc(-c5ccccc5)nc4c3)c3c(N)nccn32)C1 [LINSITINIB]", "pIC50": "< 5.59"}
{"molecule": "C=CCc1cccc(/C=N/NC(=O)CN2CCN(Cc3ccccc3)CC2)c1O [PAC-1]", "pIC50": "< 5.59"}

---

Test system: MLMA;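 also: growth inhibition of MLMA cells (human), determined through a cell viability readout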
assayProtocol: cells
Assay type: functional, cell-based, Homo sapiens
cond: Homo sapiens, MLMA
Description: SANGER: Inhibition of human MLMA cell growth in a cell viability assay.
property: IC50

{"molecule": "O=C(c1cc(Cc2n[nH]c(=O)c3ccccc23)ccc1F)N1CCN(C(=O)C2CC2)CC1", "experimentalResult": "> 5 µM"}
{"molecule": "C=CCNC1=C2C[C@@H](C)C[C@H](OC)[C@H](O)[C@@H](C)/C=C(\\C)[C@H](OC(N)=O)[C@@H](OC)/C=C\\C=C(/C)C(=O)NC(=CC1=O)C2=O", "experimentalResult": "> 1 µM"}
{"molecule": "C=C1C(=O)O[C@@H]2C3O[C@]3(C)CC/C=C(\\C)CC[C@@H]12 (stereo not given in full)", "experimentalResult": "> 5 µM"}
{"molecule": "O=C(NOCC1CC1)c1ccc(F)c(F)c1Nc1ccc(I)cc1Cl", "experimentalResult": "> 10 µM"}
{"molecule": "CCc1nc(N)nc(N)c1-c1ccc(Cl)cc1", "experimentalResult": "> 20 µM"}
{"molecule": "Cn1cc(C2=C(c3ccc(Cl)cc3Cl)C(=O)NC2=O)c2ccccc21", "experimentalResult": "> 10 µM"}
{"molecule": "CNC(=O)c1cc(Oc2ccc(NC(=O)Nc3ccc(Cl)c(C(F)(F)F)c3)cc2)ccn1", "experimentalResult": "> 4 µM"}
{"molecule": "O=C1N=C(NCc2cccs2)S/C1=C\\c1ccc2ncccc2c1", "experimentalResult": "> 5 µM"}
{"molecule": "Cc1cc(Nc2cc(N3CCN(C)CC3)nc(Sc3ccc(NC(=O)C4CC4)cc3)n2)n[nH]1", "experimentalResult": "> 2 µM"}
{"molecule": "CN(c1ncccc1CNc1nc(Nc2ccc3c(c2)CC(=O)N3)ncc1C(F)(F)F)S(C)(=O)=O", "experimentalResult": "> 2.56 µM"}
